meta.source: patent US20190315806A1

Reported MIC P. aeruginosa ATCC 27853 values are given for each entry in this list.
# System: Pseudomonas aeruginosa ATCC 27853
# Format: cell-based
# Study Conditions: ATCC 27853
Where a SMILES comes first, the peptide text is derived from it. Bridges are numbered along the chain shown (N, C = ends). [ ]: non-standard residue; d: D form. The star is where a group is joined. X2 = CC[C@H](C)CCCCC(=O)*; Heptanoyl = CCCCCCC(=O)*; Dab = NCC[C@H](N)C(=O)O; X4 = COCCCCCC(=O)*
Report as a plain number; the unit µg/mL is understood.

compound="CC[C@H](C)CCCCC(=O)N[C@@H](CCN)C(=O)N[C@H](C(=O)N[C@@H](CCN)C(=O)N[C@H]1CCNC(=O)[C@H]([C@@H](C)O)NC(=O)[C@H](CCN)NC(=O)[C@H](CCN)NC(=O)[C@H](CC(C)C)NC(=O)[C@@H](Cc2ccc(O)cc2)NC(=O)[C@H](CCN)NC1=O)[C@@H](C)O [Compound 12] (X2-[Dab]T[Dab][Dab][Dab][dY]L[Dab][Dab]T; lactam 4-C)" parameter="MIC P. aeruginosa ATCC 27853" endpoint_result=1
compound="COCCCCCC(=O)N[C@@H](CCN)C(=O)N[C@H](C(=O)N[C@@H](CCN)C(=O)N[C@H]1CCNC(=O)[C@H]([C@@H](C)O)NC(=O)[C@H](CCN)NC(=O)[C@H](CCN)NC(=O)[C@H](CC(C)C)NC(=O)[C@@H](Cc2ccccc2)NC(=O)[C@H](CCN)NC1=O)[C@@H](C)O [Compound 1] (X4-[Dab]T[Dab][Dab][Dab][dF]L[Dab][Dab]T; lactam 4-C)" parameter="MIC P. aeruginosa ATCC 27853" endpoint_result=1

Field: next compound
# compound CCCCCCC(=O)N[C@@H](CCN)C(=O)N[C@H](C(=O)N[C@@H](CCN)C(=O)N[C@H]1CCNC(=O)[C@H]([C@@H](C)O)NC(=O)[C@H](CCN)NC(=O)[C@H](CCN)NC(=O)[C@H]([C@@H](C)CC)NC(=O)[C@@H](CC(C)C)NC(=O)[C@H](CCN)NC1=O)[C@@H](C)O [Compound 83] (Heptanoyl-[Dab]T[Dab][Dab][Dab][dL]I[Dab][Dab]T; lactam 4-C) ; its MIC P. aeruginosa ATCC 27853 = 1
